- System Name: HLA-B*15:17
- Test: IEDB peptide-MHC binding, purified MHC/competitive/fluorescence; filed as Kd, often an IC50 or EC50 that approximates it; bounds were set here for any values at or beyond the usual limits of such assays
- Reported Conditions: source organism: Escherichia coli O139:H28 str. E24377A
pKd: −log10 of the molar value.
Measured Quantity: pKd

### Prompt Give pKd for the following sequence: SIPFGLMSA
### Response ≤ 4.70

###

- System Name: HLA-B*15:01
- Test: IEDB peptide-MHC binding, purified MHC/competitive/fluorescence; filed as Kd, often an IC50 or EC50 that approximates it; bounds were set here for any values at or beyond the usual limits of such assays
- Reported Conditions: source organism: Salmonella enterica subsp. enterica serovar Typhi
Measured Quantity: Kd

### Prompt Write Kd of HVTQHWPQL ; system used: HLA-B*15:01
### Response ≥ 20 µM

###

- System Name: HLA-A*24:03
- Test: IEDB peptide-MHC binding, purified MHC/direct/fluorescence; filed as Kd, often an IC50 or EC50 that approximates it; bounds were set here for any values at or beyond the usual limits of such assays
- Reported Conditions: source organism: Orthohantavirus tulaense
Measured Quantity: Kd

### Prompt Give Kd for the following sequence: SSLRYGNVL
### Response ≥ 20 µM

###

- System Name: HLA-C*06:02
- Test: IEDB peptide-MHC binding, purified MHC/direct/fluorescence; filed as Kd, often an IC50 or EC50 that approximates it; bounds were set here for any values at or beyond the usual limits of such assays
- Reported Conditions: source organism: Toxoplasma gondii
pKd: −log10 of the molar value.
Measured Quantity: pKd

### Prompt Give pKd for the following sequence: RTWFYRTEF
### Response ≤ 4.70

###

- System Name: HLA-A*29:02
- Test: IEDB peptide-MHC binding, purified MHC/direct/fluorescence; filed as Kd, often an IC50 or EC50 that approximates it; bounds were set here for any values at or beyond the usual limits of such assays
- Reported Conditions: source organism: Rickettsia typhi
Measured Quantity: Kd (nM)
Answers are plain numbers, in nM.

### Prompt Give Kd for the following sequence: ELYPTVNTY
### Response 55

###

- System Name: HLA-B*39:01
- Test: IEDB peptide-MHC binding, purified MHC/competitive/fluorescence; filed as Kd, often an IC50 or EC50 that approximates it; bounds were set here for any values at or beyond the usual limits of such assays
- Reported Conditions: source organism: Orthohantavirus andesense
I'd appreciate it if you could supply Kd values for the items below.

1. STGKSIKFK    ≥ 20 µM

### Prompt Give Kd for the following sequence: RWASGVSEI
### Response ≥ 20 µM

###

- System Name: HLA-B*07:02
- Test: IEDB peptide-MHC binding, purified MHC/competitive/fluorescence; filed as Kd, often an IC50 or EC50 that approximates it; bounds were set here for any values at or beyond the usual limits of such assays
- Reported Conditions: source organism: Escherichia coli 536
Measured Quantity: pKd
Answers are plain numbers, as −log10 of the molar value.

### Prompt Give pKd for the following sequence: SPLHVFVAV
### Response 7.29

###

- System Name: HLA-B*58:01
- Test: IEDB peptide-MHC binding, purified MHC/direct/fluorescence; filed as Kd, often an IC50 or EC50 that approximates it; bounds were set here for any values at or beyond the usual limits of such assays
- Reported Conditions: source organism: Pasteurella multocida
pKd: −log10 of the molar value.
Measured Quantity: pKd

### Prompt Give pKd for the following sequence: NNKSRLVAF
### Response ≤ 4.70

###

- System Name: HLA-B*18:01
- Test: IEDB peptide-MHC binding, purified MHC/direct/fluorescence; filed as Kd, often an IC50 or EC50 that approximates it; bounds were set here for any values at or beyond the usual limits of such assays
- Reported Conditions: source organism: Influenza A virus (A/duck/Guangxi/1586/2004(H5N1))
Measured Quantity: Kd (nM)
Numbers only, in nM.

### Prompt Give Kd for the following sequence: REILTKTTV
### Response 358

###

- System Name: HLA-A*02:06
- Test: IEDB peptide-MHC binding, purified MHC/direct/fluorescence; filed as Kd, often an IC50 or EC50 that approximates it; bounds were set here for any values at or beyond the usual limits of such assays
- Reported Conditions: source organism: Salmonella enterica subsp. arizonae serovar 62:z4,z23:-
Measured Quantity: Kd (nM)
Numbers only, in nM.

### Prompt Give Kd for the following sequence: RIYSHIAPY
### Response 221

###

- System Name: HLA-C*05:01
- Test: IEDB peptide-MHC binding, purified MHC/direct/fluorescence; filed as Kd, often an IC50 or EC50 that approximates it; bounds were set here for any values at or beyond the usual limits of such assays
- Reported Conditions: source organism: Salmonella enterica subsp. enterica serovar Typhi str. CT18
I'd appreciate it if you could supply Kd values for the items below.
One number for each entry, in nM.

1. FVVDTTPPL    1100

Now for the sequence whose Kd we want.
### Prompt Give Kd for the following sequence: ITDWLNFTL
### Response 213

###

- System Name: HLA-A*29:02
- Test: IEDB peptide-MHC binding, purified MHC/competitive/fluorescence; filed as Kd, often an IC50 or EC50 that approximates it; bounds were set here for any values at or beyond the usual limits of such assays
- Reported Conditions: source organism: Mycobacterium tuberculosis variant bovis BCG str. Pasteur 1173P2
Measured Quantity: Kd

### Prompt Give Kd for the following sequence: AEDLADHHV
### Response ≥ 20 µM

###

- System Name: HLA-A*02:01
- Test: IEDB peptide-MHC binding, purified MHC/direct/fluorescence; filed as Kd, often an IC50 or EC50 that approximates it; bounds were set here for any values at or beyond the usual limits of such assays
- Reported Conditions: source organism: Entamoeba histolytica HM-1:IMSS
I'd appreciate it if you could supply Kd values for the items below.
Answer format: value, then unit.

# count of solved cases: 2
1) NVGRILGYV    146 nM
2) EINPFYQDV    19500 nM

Now for the sequence whose Kd we want.
### Prompt Write Kd of KQLEWKWGI ; system used: HLA-A*02:01
### Response 0.7 nM

###

- System Name: HLA-B*45:06
- Test: IEDB peptide-MHC binding, purified MHC/competitive/fluorescence; filed as Kd, often an IC50 or EC50 that approximates it; bounds were set here for any values at or beyond the usual limits of such assays
- Reported Conditions: source organism: Mycobacterium tuberculosis CDC1551
pKd: −log10 of the molar value.
Measured Quantity: pKd

### Prompt Give pKd for the following sequence: RPREATIIY
### Response ≤ 5.30

###

- System Name: HLA-A*68:02
- Test: IEDB peptide-MHC binding, purified MHC/direct/fluorescence; filed as Kd, often an IC50 or EC50 that approximates it; bounds were set here for any values at or beyond the usual limits of such assays
- Reported Conditions: source organism: Marburg virus - Musoke, Kenya, 1980
Measured Quantity: Kd

### Prompt Give Kd for the following sequence: AEALLADGL
### Response ≥ 20 µM

###

I'd appreciate it if you could supply Kd values for the items below.
- System Name: HLA-B*15:01
- Test: IEDB peptide-MHC binding, purified MHC/competitive/fluorescence; filed as Kd, often an IC50 or EC50 that approximates it; bounds were set here for any values at or beyond the usual limits of such assays
- Reported Conditions: source organism: Escherichia coli 536

# count of solved cases: 3
1. KLIAVPHTK    ≥ 20 µM
2. RVGIYFGMK    ≥ 20 µM
3. SPLHVFVAV    ≥ 20 µM

Now for the sequence whose Kd we want.
### Prompt Give Kd for the following sequence: KLYPNVDFY
### Response 0.107 µM

###

- System Name: HLA-A*11:01
- Test: IEDB peptide-MHC binding, purified MHC/competitive/radioactivity; filed as Kd, often an IC50 or EC50 that approximates it; bounds were set here for any values at or beyond the usual limits of such assays
- Reported Conditions: source organism: Vaccinia virus WR
Measured Quantity: Kd (nM)
Numbers only, in nM.

# count of solved cases: 5
1) TSASEIKDR    1680
2) TQMRTPLHK    78
3) MSSSVDVDIY    12500
4) VVMHINSPFK    2.56
5) QAELTSNCTR    2430

// for each sequence below, give its Kd
1. ISEKETLNEY
2. SMGFKVTTR
3. TIQRFSSLRR
4. SMTYLYNKY
5. FMTLVPVLEK
6. NSNIIKNKK

### Response
[3000, 4730, 1.88, 1660, 3.96, 1240]

// for each sequence below, give its Kd
1. RLTDTEYRAR
2. LIPLSEMVVK
3. RTKLMSNIK
4. LILNFLDWIK
5. KAIITPVVFY
6. PSVNEYHMLK
7. IFYFISIYSR
8. QIDRLEDLSK

### Response
[794, 55.2, 29.4, 9.27, 900, 13.7, 4180, 255]

### Prompt Write Kd of LILSNKLLY ; system used: HLA-A*11:01
### Response 192
